- Test system: SNB-75 CNS
- METHOD: NCI-60 one-dose screen, 48 h (100 = growth as untreated, 0 = no growth, -100 = all killed)
- STUDY CONDITIONS: 10 µM unless noted
The panel holds about 83,000 compounds, 20% with a hit somewhere; the sample as a whole holds those more often.
REPORTED METRIC: growth (%)
One number for each entry, in %.

Worked examples follow.
[
  {
    "STRUCTURE NOTATION": "COc1cc2c(cc1-c1c(C)noc1C)ncc1nc(CN3CCOCC3)n([C@H](C)COC(F)F)c12",
    "REPORTED METRIC": "growth",
    "READOUT NUMBER": 3.11
  },
  {
    "STRUCTURE NOTATION": "Cc1c(O)cc(-c2cnc(N/N=C/c3ccccc3)s2)c(O)c1C",
    "REPORTED METRIC": "growth",
    "READOUT NUMBER": 98
  },
  {
    "STRUCTURE NOTATION": "CCOc1ncc([N+](=O)[O-])c(OCC)n1",
    "REPORTED METRIC": "growth",
    "READOUT NUMBER": 97
  },
  {
    "STRUCTURE NOTATION": "COc1ccc(N/N=C/c2cn(-c3ccc(C(=O)O)cc3)nc2-c2cc3ccccc3oc2=O)cc1",
    "REPORTED METRIC": "growth",
    "READOUT NUMBER": 82.1
  }
]

Respectfully, I request growth for each entry included below.
1. O=C(NCCN1CCOCC1)OCc1ccc2c(Cl)cc(Cl)c(O)c2n1
2. CCOC(=O)/C(=C(/C)NCC(C)C)c1cc(O)c(O)c2c(C)cc(=O)[nH]c12

71.2
78.2

Respectfully, I request growth for each entry included below.
1. COc1ccc(C(=O)/C=C/c2ccccc2)cc1S(N)(=O)=O
2. CCOc1ccc(/C=C/C(=O)c2cccc(OCCCOc3cccc(C(=O)/C=C/c4ccc(OCC)cc4)c3)c2)cc1
3. Oc1c(CN2CCC(N3CCOCC3)CC2)cc(Cc2cc(CN3CCC(N4CCOCC4)CC3)c(O)c3ncccc23)c2cccnc12

1: 87.2; 2: 83.9; 3: 56.9
